Record form. Attribute: microsomal CLint at 0.5 uM. Fill in for each entry.
# Assay Method Text: In vitro intrinsic clearance in microsomes (Assay 3), rat
# Assay type: in vitro ADME
# Assay Setup: pH 7.4; heading: Assay 3 - Microsomal Cl; rat female microsomes, 0.5 uM compound, 0.5 mg/mL protein
# Experimental: Determination of In Vitro Intrinsic Clearance in Microsomes NADP regeneration buffer for use in incubations was prepared fresh on the assay day. […] Test compound concentrations were determined by LC/MS/MS; results were reported as analyte:internal standard peak area ratios. The rate of disappearance was calculated by fitting a single exponential decay to the concentration-time curve using Excel and intrinsic clearance was calculated using the following formula: [formula] […]

Answered examples (3):
CC(C)C[C@@H]1C(=O)N[C@H](C2Cc3ccccc3C2)C(=O)N1[C@@H](C(=O)N(C)C)c1ccc(F)cc1F [Comparator compound Y, reference compound] = 1 to 8 mL/min/g
CC(C)C[C@@H]1C(=O)N[C@H](C2Cc3ccccc3C2)C(=O)N1[C@@H](C(=O)N(C)C)c1ccc2[nH]ncc2c1 [Comparator compound X, reference compound] = 9 to 15 mL/min/g
CC[C@H](C)[C@@H]1C(=O)N[C@H](C2Cc3ccccc3C2)C(=O)N1[C@@H](C(=O)N(C)C)c1ccc2c(cnn2C)c1 [Example 2] = 1 to 8 mL/min/g

Next:
q: Endpoint output: microsomal CLint at 0.5 uM of CC[C@H](C)[C@@H]1C(=O)N[C@H](C2Cc3ccccc3C2)C(=O)N1[C@@H](C(=O)NC)c1ccc2c(cnn2C)c1 [Example 1] . Value?
a: 1 to 8 mL/min/g
